Tested on: SMN protein
Test: SMN protein assay (HTRF) in cultured SMA patient fibroblast cells
Format: cell-based
Conditions: SMA Type 1 human fibroblasts GM03813, 48 hours, 7-point concentration data; fold vs vehicle control
Protocol: The SMN HTRF (homogeneous time resolved fluorescence) assay is used to quantify the level of SMN protein in SMA patient fibroblast cells treated with test compounds. Cells are thawed and cultured in DMEM-10% FBS for 72 hours. Cells are trypsinized, counted and re-suspended to a concentration of 25,000 cells/mL in DMEM-10% FBS. […] Fluorescence for each well of the plate at 665 nm and 620 nm is measured on an EnVision multilabel plate reader (Perkin-Elmer). […]
Structures can show the parent of a compound that is named as a salt.
max. fold increase (maximum fold increase of SMN protein) overview
Measured quantity: max. fold increase (maximum fold increase of SMN protein)

• Cc1nc2c(F)cc(NC(=O)c3ccc(N4CCN(C)CC4)nc3)cc2o1 = 1.756
• Cc1cn2cc(NC(=O)c3ccc(N4CCN5CCC[C@H]5C4)cc3F)ccc2n1 = 1.7849
• Cc1cn2cc(NC(=O)c3cnc(N4CCNCC4)c(C)c3)cc(F)c2n1 = 1.6552
• Cc1cn2cc(NC(=O)c3ccc(N4CCNC(C)C4)cn3)ccc2n1 (racemic) = 1.6966
• COc1cc(N2CCNCC2)ncc1C(=O)Nc1cc(F)c2nc(C)cn2c1 = 1.7612
• Cc1cn2cc(NC(=O)c3ccc(N4CCNCC4)nc3F)cc(F)c2n1 = 1.7675
• Cc1nc2c(F)cc(NC(=O)c3ccc(N4CC(C)NC(C)C4)cc3)cc2o1 (centres unmarked) = 1.6734
• Cc1cn2cc(NC(=O)c3ccc(C4CCNCC4)nc3)cc(F)c2n1 [Example 79, dihydrochloride] = 1.6574
